assay: NCI Yeast Anticancer Drug Screen. Data for the bub3 strain (AID 167); conditions: S. cerevisiae bub3 mutant strain, at 50.0 µM
This is part of a sample that, as a whole, favours compounds with a hit. Of some 79,000 tested, about 15% had one in any assay. Activity calls are given as the source filed them. Rule as the data show it: active = growth inhibition above about 70%; inactive = the rest.
Return exactly one item of active, inactive

Observe how each entry below is paired with its result.
CCC1(C(C)C)C(=O)NC(=S)N(C)C1=O (centres undefined) : inactive
CCN(CC)CCN(Cc1ccccc1)C(=O)C(O)(c1ccccc1)c1ccccc1 : inactive
Brc1ccc2nncc(N3CC3)c2c1 : inactive
Cc1nnc2cc3ccccc3cn12 : inactive
CC1CCC2NCCNC2C1 (centres undefined) : inactive
CN1C[C@H]2[C@@H](C1=O)[C@H](c1ccccc1)ON2C : inactive
CC([CH2][Hg][Cl])c1ccccc1 (centres undefined) : active
[N-]=[N+]=NC1C2CC3CC(C2)CC1C3 (centres undefined) : inactive
CCC1CN2CCC1CC2C(O)c1cc[n+]([O-])c2ccc(OC)cc12 (centres undefined) : inactive
O=[N+]([O-])/C=C\c1ccccc1 : active

Asked: Can you look up the reported call for c1ccc([C@H]2N[C@@H]2c2ccccn2)cc1 for me?
Given back: inactive

---

Assay: NCI Yeast Anticancer Drug Screen. Data for the sgs1 mgt1 strain (AID 161);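 also: 0% = growth of cultures given vehicle only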
Details: S. cerevisiae sgs1 mgt1 strain, at 50.0 µM
Experimental: Growth inhibition of yeast strains with defined genetic alterations is measured as a screen for potential anti-cancer activity. Selected strains with alterations in DNA damage repair or cell cycle control were exposed to compounds and growth inhibition was measured relative to vehicle treated controls. The strain used in this assay is sgs1 mgt1
The panel holds about 79,000 compounds, 15% with a hit somewhere; the sample as a whole holds those more often. Calls of active or inactive are those of the source. No stated cut-off is given here; in the data, active means growth inhibition above about 70%; inactive means the rest.
Select the correct class. Options are true = active, false = inactive and nothing else.

Consider the following illustrative entries.
O=C(O)C(F)(F)C(F)(F)C(=O)O : false
Cc1cc2[nH]c3c(C#N)c(OC(=O)N(C)C)c(C)c(=O)n3c2cc1C : false
O=[N+]([O-])c1c[c]([Hg][Cl])c(O)[c]([Hg][Cl])c1 : true
CCOC(=O)/C=C1\Nc2ccccc2C(c2ccccc2)=NC1OC(C)=O (centres undefined) : false
CO[C@H]1C=C[C@@]23c4cc5c(cc4CO[C@]2(O)CN(C)[C@H]3C1)OCO5 : false

Asked: Hey, what did the test say about O=[N+]([O-])c1ccc(Cl)c([N+](=O)[O-])c1 ?
Given back: true

Asked: Tell me the assay call for CC1(c2ccccc2)CCC(=O)NC1=O (centres undefined) please.
Given back: false

Asked: Per the assay record, what outcome was assigned to CCCCCCOC(=O)c1ccccc1C(=O)OCCCCCC ?
Given back: false

---

experiment: NCI Yeast Anticancer Drug Screen. Data for the rad50 strain (AID 155);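 also: 0% = growth of vehicle-only cultures of the same strain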; settings: S. cerevisiae rad50 strain growth inhibition; at 50.0 µM
This is part of a sample that, as a whole, favours compounds with a hit. Of some 79,000 tested, about 15% had one in any assay. Calls of active or inactive are those of the source. Cut-off read from the data, not from the text of the source: active = growth inhibition above about 70%; inactive = the rest.
Field 'call' accepts active, inactive

A selection of reference data follows.
N#C[S-].[Ce+3].c1cnc2c(c1)ccc1cccnc12.c1cnc2c(c1)ccc1cccnc12.c1cnc2c(c1)ccc1cccnc12 : active
CCC[CH2][Sn]([I])([CH2]I)[CH2]CCC : active
C1CN([PH+](N2CC2)N2CC2)CCO1.[C-]#[O+].[C-]#[O+].[C-]#[O+].[C-]#[O+].[C-]#[O+].[Mo] : inactive

Asked: # lookup: test call for OCN1CCC23c4c5ccc(O)c4OC2C(O)C=CC3C1C5 (centres undefined)
Given back: inactive

Asked: What was the test verdict on C[PH+](C)C.C[PH+](C)C.[Au] ?
Given back: active

---

test: NCI Yeast Anticancer Drug Screen. Data for the cln2 rad14 strain (AID 165);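 also: 0% = growth equal to vehicle treated cultures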; conditions: S. cerevisiae cln2 rad14 strain, at 50.0 µM (retest, dose inferred, filed as 5.0), stronger effect = higher value
About 79,000 compounds went through this panel and 15% of them were active in at least one assay; those are over-represented in the sample as a whole.
Attribute measured: growth inhibition (%)
Write the answer as a number in %, unit excluded.

O=C1C(CCl)(CCl)CCC12CNC(Cl)(Cl)C2 (stereo not drawn) : 5
[Se]C1=NCCN1 : 48
COC1CC(OC2C(C)OC(OC3C(C)OC(OC4CCC5(C)C(=CCC6(O)C5CC(OC(=O)c5ccc(O)cc5)C5(C)C(O)(C(C)=O)CCC65O)C4)CC3OC)CC2OC)OC(C)C1O (stereo not drawn) (tested in a mixture with another compound) : 49
c1ccc2c(c1)[O][Sn][O]2 : -1
C/C=C1/C(=O)O[C@]23C=C[C@@H]4C(C(=O)OC)=CO[C@H](O[C@@H]12)[C@@H]43 : 64
CC(C)NC1CC2CCCCC2CC1c1ccccc1 (stereo not drawn) : 57
Sc1ccccc1.[Ag] : 97
O=C(Oc1ccc(S(=O)(=O)F)cc1F)c1ccccc1Cl : 99

Asked: Tell me measured growth inhibition for CC(C)(C)OOC(=O)/C=C\C(=O)OOC(C)(C)C please.
Given back: -8

Asked: Tell me its growth inhibition given CCO[C@@H]([CH2][Hg][Cl])[C@](C)([CH2][Hg][Cl])OCC as the entry.
Given back: 99

Asked: Please give the documented growth inhibition of COc1cc(C2c3cc4c(cc3OC(N3CCOCC3)C2C)OCO4)cc(OC)c1OC (stereo not drawn)
Given back: 0

---

# growth inhibition per record follows
experiment: NCI Yeast Anticancer Drug Screen. Data for the bub3 strain (AID 167); conditions: S. cerevisiae bub3 mutant strain, at 50.0 µM, stronger effect = higher value
This is part of a sample that, as a whole, favours compounds with a hit. Of some 79,000 tested, about 15% had one in any assay.
Reply numerically in %, unit not repeated.

Example entries begin here.
[Fe+5].[O-][Cl+3]([O-])([O-])O.[O-]c1ccccc1C=NCCN1CC1.[O-]c1ccccc1C=NCCN1CC1 : 37
CC1=CC23C(COC(=O)C24CO4)C(C(=O)O)=CC3C1C (stereo unspecified) (tested in a mixture with another compound) : 17.9
CCCNP(=S)(NCCC)NCCC : 0
O=[N+]([O-])C1CC/C(=N/O)c2nonc21 (stereo unspecified) : 5.3
CN(C)c1ccccc1CN1CCCN(Cc2ccccc2N(C)C)C1c1ccc(N(CCCl)CCCl)cc1 : 15.1

Asked: Fill in reported growth inhibition for this entry: C/C(=N\N=C(/[Se])N1CCC(C)CC1)c1ccccn1
Given back: 84.5

Asked: Give growth inhibition for the following compound: CCOC(=O)C(Cc1ccc(N(CCCl)CCCl)cc1)NC(=O)CNC(C)=O (stereo unspecified)
Given back: -10.4

Asked: Supply measured growth inhibition of OC(CN(CCCl)CCCl)C(O)C(O)C(O)CN(CCCl)CCCl (stereo unspecified) in your reply.
Given back: -12.1

Asked: Return growth inhibition (reported value) for this compound: c1ccc(CCN2CCOCC2)nc1
Given back: 4.55

Asked: Given Cc1c2n(c3ccccc13)CC1CON(C)C21 (stereo unspecified) , respond with its growth inhibition.
Given back: -31.4

Asked: Tell me measured growth inhibition for CC(C)c1ccc(-n2c(=S)[nH]c3ccccc3c2=O)cc1 please.
Given back: -5.7

---

assay: NCI Yeast Anticancer Drug Screen. Data for the sgs1 mgt1 strain (AID 161);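 also: 0% = growth of cultures given vehicle only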; settings: S. cerevisiae sgs1 mgt1 strain, at 5.0 µM (retest, dose inferred, filed as 0.5)
The panel holds about 79,000 compounds, 15% with a hit somewhere; the sample as a whole holds those more often. Active and inactive are the calls of the source. Cut-off read from the data, not from the text of the source: active = growth inhibition above about 70%; inactive = the rest.
Please answer using one outcome listed in yes for active, no for inactive

O=[N+]([O-])c1ccc(CS(=O)(=O)C(Cl)Cl)o1 : no
COC12C(COC(N)=O)C3=C(C(=O)C(C)=C(NC(C)C)C3=O)N1CC1NC12 (centres undefined) : no

Asked: Recorded test outcome, item O=[n+]1c2ccccc2n([O-])c2ccccc21
Given back: no

Asked: For this compound, state the assay outcome: NC(=O)c1ccc(C(=O)Nc2ccc([As](=O)(O)O)cc2)cc1
Given back: no

Asked: Identify the outcome logged in this assay for the compound shown: C[SH+]c1ccccc1N=Cc1ccccn1.C[SH+]c1ccccc1N=Cc1ccccn1.[Ni+2].[O-][Cl+3]([O-])([O-])[O-]
Given back: no

Asked: State the result this test recorded for COCCOCCOC(=O)CBr .
Given back: no

Asked: Could you please tell me the result logged for CCC[CH2][Sn]1([CH2]CCC)[O]CCN2CCN(CC[O]1)CC2 in this assay?
Given back: no

Asked: Outcome logged for Cc1[cH-]c(=O)n(-c2ccccc2)n1.[Au+].[Au].c1ccc([PH+](c2ccccc2)c2ccccc2)cc1.c1ccc([PH+](c2ccccc2)c2ccccc2)cc1 in this assay:
Given back: no

---

assay: NCI Yeast Anticancer Drug Screen. Data for the mlh1 rad18 strain (AID 175); settings: S. cerevisiae mlh1 rad18 strain growth inhibition; at 5.0 µM (retest, dose inferred, filed as 0.5); stronger effect = higher value
This is part of a sample that, as a whole, favours compounds with a hit. Of some 79,000 tested, about 15% had one in any assay.
Attribute measured: growth inhibition (%)
Dear colleague, please return just the value in %, with no unit written.

C[As](C)SCCC(N)C(=O)NC(CCS[As](C)C)C(=O)O (stereo not drawn) : 27
CC(=O)[O-].O=[N+]([O-])c1ccc([O-])c(C=NCCN=Cc2cc([N+](=O)[O-])ccc2[O-])c1.[Mn+3] : 12
COc1ccc([As](O[As](c2ccc(OC)cc2)c2ccc(OC)cc2)c2ccc(OC)cc2)cc1 : 99
ClCC[Se](Cl)(Cl)c1ccccc1 : 33
CO[C@@]12[C@@H]3N[C@@H]3CN1C1=C(C(=O)C(N(C)c3ccc(O)cc3)=C(C)C1=O)[C@@H]2COC(N)=O : 33

Asked: Provide measured growth inhibition value, entry: CC1Oc2cc3c(-c4c(O)cc(O)c5c(O)c6c(cc45)OC(C)C(C)C6=O)c(O)cc(O)c3c(O)c2C(=O)C1C (stereo not drawn)
Given back: 10

Asked: Dear colleague, please send me the reported growth inhibition for O=[N+]([O-])c1cc([N+](=O)[O-])c(Cl)s1 when you can.
Given back: 99

Asked: In one line, give reported growth inhibition of the entry Oc1c(Cl)cc(Cl)cc1Cl.[Cu+2] .
Given back: 0

Asked: Fill in growth inhibition for record O=[N+]([O-])c1ccc([N+](=O)[O-])c2nsnc12
Given back: 79

Asked: Provide one value: measured growth inhibition of CC1CCN(CCC(=O)CC(c2ccccc2)c2c(O)c3ccccc3oc2=O)CC1 (stereo not drawn)
Given back: 18

Asked: Supply growth inhibition value. Item: COC([CH2][Hg])CN1C(=O)c2cc(C)c(C)cc2C1=O (stereo not drawn)
Given back: 99
